Tested on: TO-N3-2 (biotin conjugate)
Test: pull-down binding Z-score (relative to library population); higher = stronger binding
Conditions: RNA library: Library-2
Response key: Y means pull-down binding Z-score >= -0.01; N means pull-down binding Z-score < -0.01.

Query block: Given CUGCCCCUCGAAUCUGCUCCACGAUUUGGGCAG [hsa-mir-4436a] , state whether its pull-down binding Z-score is at least -0.01.
Result block: N

Query block: Given AUGGUUCCUAUUCUGAUCAAUAAACAUGGUUUGAGCCUAGUUACAAUGAUCUAAAAUUCACGGUCCAA [hsa-mir-548o] , state whether its pull-down binding Z-score is at least -0.01.
Result block: N

Query block: Given CAGCCUGGGGCAUCGGUUG [hsa-mir-5572] , state whether its pull-down binding Z-score is at least -0.01.
Result block: Y

Query block: Given UUUGCCGUCGAAAAUAAUGGCAAA [hsa-mir-548am] , state whether its pull-down binding Z-score is at least -0.01.
Result block: N

Query block: Given UGCAAGAGAUGGUUGUGUUCCCUUGAACAUAAUACCUCUUACA [DMSMaPseq_invitro_SARS-CoV-2_Motif_219] , state whether its pull-down binding Z-score is at least -0.01.
Result block: N

Query block: Given CCUGCAGGUGAGAGCGGGAACACCUGCAU [hsa-mir-7112] , state whether its pull-down binding Z-score is at least -0.01.
Result block: Y

Query block: Given CUGUCCAAGACAUGUGAUCUGCACCUCUGAAGACAUGCUUAACCCUAAUUAUGAAGAUUUACUCAUUCGUAAGUCUAAUCAUAAUUUCUUGGUACAG , state whether its pull-down binding Z-score is at least -0.01.
Result block: N

Query block: Given UGCCACCCAGCCCUGCAGAGCCCCUGACUC [hsa-mir-6814] , state whether its pull-down binding Z-score is at least -0.01.
Result block: Y

Query block: Given UACAAUUUGCCUAUGCCAACAGGAAUAGGUUUUUGUA , state whether its pull-down binding Z-score is at least -0.01.
Result block: N

====

Tested on: G-clamp-N3 (biotin conjugate)
Experiment: pull-down binding Z-score (relative to library population); higher = stronger binding
Conditions: RNA library: Library-1 (pre-miRNA loops + repeats)
MEASURED_PROPERTY: pull-down binding Z-score
// no unit string in output, number only

> print(dat)
                             input.sequence  numeric.result
1  UCCAGAGGCAUCCCUAACCCAGAAUCUUUUGACUGUCCUCUGGA [hsa-mir-4306]          -0.668

Query block: What value of pull-down binding Z-score has been reported for the following sequence? CUCGGGAGGCUGAG [hsa-mir-4419a]
Result block: 1.91

Query block: What value of pull-down binding Z-score has been reported for the following sequence? GACUUGAGAUUAUAGUC [hsa-mir-3685]
Result block: -0.369

Query block: What value of pull-down binding Z-score has been reported for the following sequence? ACGCGCUGUGACACUUCAAACUCGU [hsa-mir-126]
Result block: -0.904

Query block: What value of pull-down binding Z-score has been reported for the following sequence? CUCUGUAGUUUUCUUAUAGUG [hsa-mir-644a]
Result block: -0.255

Query block: What value of pull-down binding Z-score has been reported for the following sequence? UUUUGACAUUACUUUCAAAGACAAAA [hsa-mir-548f-1]
Result block: -1.58

====

Tested on: TO-3-N3-2 (biotin conjugate)
Assay: pull-down binding Z-score (relative to library population); higher = stronger binding
Settings: RNA library: Library-2
MEASURED_PROPERTY: pull-down binding Z-score
// no unit string in output, number only

Consider the reported pull-down binding Z-score for these sequences:
> print(dat)
                           input.sequence  numeric.result
1   GCGCCGCCAGAAACUGGCUGCGC [mismatch-CU]         -0.0148
2  UCGCCUAGGGCUCUGAGCAGGGCA [hsa-mir-211]           0.463

Query block: What value of pull-down binding Z-score has been reported for the following sequence? CUGUCACUAAG
Result block: -0.0755

Query block: What value of pull-down binding Z-score has been reported for the following sequence? CUGCAGUGAGUAGGUCUGCCU [hsa-mir-4254]
Result block: 0.253

====

Test system: TO-N3 (biotin conjugate)
Experiment: pull-down binding Z-score (relative to library population); higher = stronger binding
Conditions: RNA library: Library-2
Response key: TRUE means pull-down binding Z-score >= -0.3; FALSE means pull-down binding Z-score < -0.3.

> print(dat)
                             input.sequence  classification
1  AUGGUUAUCUUACUUCUUCUUCUAAAACACCUGAAGAACAUUUUAUUGAAACCAU           FALSE

Query block: Given GUGUCCUUUCUUCUGAGAGCUGGACAC [hsa-mir-6500] , state whether its pull-down binding Z-score is at least -0.3.
Result block: FALSE

Query block: Given AAGAAGGUCAAAUCAAUGAUAUGAUUUUAUCUCUUCUU , state whether its pull-down binding Z-score is at least -0.3.
Result block: FALSE

Query block: Given AAGGCCCUUGGGCACCCCAGGCCUU [hsa-mir-5700] , state whether its pull-down binding Z-score is at least -0.3.
Result block: TRUE

Query block: Given GGGCUGUGACCACUGAAGUGGCAUUUGGCCU [IAV_invivo_M1_M2_7_Motif_9+IAV_invivo_M1_M2_7_Motif_9] , state whether its pull-down binding Z-score is at least -0.3.
Result block: TRUE

Query block: Given GGGAGGUAAGAAGUCUCUGACUCCU [hsa-mir-5193] , state whether its pull-down binding Z-score is at least -0.3.
Result block: FALSE

Query block: Given CUGGGGUUGGAAUGUGACCCCA [hsa-mir-4654] , state whether its pull-down binding Z-score is at least -0.3.
Result block: TRUE

Query block: Given UAUUCGCUUUAUUGACUUCGAAUA [hsa-mir-369] , state whether its pull-down binding Z-score is at least -0.3.
Result block: TRUE

Query block: Given UGACUCAGAUCU [hsa-mir-759] , state whether its pull-down binding Z-score is at least -0.3.
Result block: TRUE

Query block: Given CAGAGUGUGCAUGGCAGGCU [hsa-mir-7156] , state whether its pull-down binding Z-score is at least -0.3.
Result block: TRUE

Query block: Given UCUUAGACUAUUACAAGA [hsa-mir-3672] , state whether its pull-down binding Z-score is at least -0.3.
Result block: TRUE

Query block: Given GCCAGCAACCUGAUUACCCCUCUUUGGC [hsa-mir-6851] , state whether its pull-down binding Z-score is at least -0.3.
Result block: FALSE

Query block: Given UUUCUUAAAUUUUAUAUAUUGGAA [hsa-mir-1284] , state whether its pull-down binding Z-score is at least -0.3.
Result block: TRUE

Query block: Given UCCUGAGCUAGGAGGAUUAGGA [hsa-mir-5093] , state whether its pull-down binding Z-score is at least -0.3.
Result block: TRUE

Query block: Given CCUGUAUGUCUCCCCGCAGCACCGUCAUCGU [hsa-mir-6774] , state whether its pull-down binding Z-score is at least -0.3.
Result block: TRUE

Query block: Given UCUGCUUUAUUUCAUCAAAGCAGA [hsa-mir-4773-1] , state whether its pull-down binding Z-score is at least -0.3.
Result block: FALSE

Query block: Given CAGUGAGCCAAGAUCGUGCCACUG [hsa-mir-1273d] , state whether its pull-down binding Z-score is at least -0.3.
Result block: TRUE

Query block: Given UCAAACAAGUUUCCAAAUUGUUUGA [hsa-mir-488] , state whether its pull-down binding Z-score is at least -0.3.
Result block: TRUE

Query block: Given UGGGUUGUGUCAGUGUCAGACCUC [hsa-mir-146a] , state whether its pull-down binding Z-score is at least -0.3.
Result block: TRUE

Query block: Given GCUGAACCCCUGCCCCUGGAGCCCCCAGCAGGGCCCUC [hsa-mir-7162] , state whether its pull-down binding Z-score is at least -0.3.
Result block: TRUE

Query block: Given CUUCAGAGCAGGGUUUGGUCUGUGCUUCUCUG [hsa-mir-6719] , state whether its pull-down binding Z-score is at least -0.3.
Result block: TRUE

Query block: Given AUGUGAUUGCUGUCCCAAACUCAUGU [hsa-mir-135b] , state whether its pull-down binding Z-score is at least -0.3.
Result block: TRUE

====

Tested on: TO-N3 (biotin conjugate)
Test: pull-down binding Z-score (relative to library population); higher = stronger binding
Details: RNA library: Library-2
MEASURED_PROPERTY: pull-down binding Z-score
// no unit string in output, number only

Consider the reported pull-down binding Z-score for these sequences:
> print(dat)
                             input.sequence           measured.target  numeric.result
1  UAAGGAAGGAAGUUCUGUUGAAUUAAAACACUUCUUCUUUG [SHAPE_invitro_SARS-CoV-2_Motif_269]  TO-N3 (biotin conjugate)            -1.1
2  UGGAGGAGUCUGGUGGCCUGUUCUCUU [hsa-mir-6754]  TO-N3 (biotin conjugate)           0.123
3  GUGGAGCCAAAAUUAGAAGGGCCAAAAUUCUACCUGGCCCACUACCACAG [hsa-mir-3978]  TO-N3 (biotin conjugate)        -0.00817
4    AUGGGAGCCCAGAGACGUCCUAU [hsa-mir-8074]  TO-N3 (biotin conjugate)          0.0134

Now let's try a different one.
Query block: What value of pull-down binding Z-score has been reported for the following sequence? GCUUAUUGAUGUAGCCAACAAGC [hsa-mir-3148]
Result block: -0.643
